test: recombinant barcode read abundance after kanamycin selection (control-corrected) (log10(CPM+1)); higher = more efficient recombination; sequences stand for … in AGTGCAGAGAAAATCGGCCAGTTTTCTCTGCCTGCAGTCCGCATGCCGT…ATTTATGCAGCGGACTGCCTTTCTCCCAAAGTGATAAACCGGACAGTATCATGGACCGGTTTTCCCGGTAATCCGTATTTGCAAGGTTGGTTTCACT; site = the 11-nt target
Classify as follows. Reported recombinant barcode read abundance (log10) greater than or equal to 0.1: criterion met. Reported recombinant barcode read abundance (log10) below: criterion not met.

Previously resolved entries follow.
- TCGCGACGTTGGGTTCTAACCTGTTGCCGAC [TCGCGACCTCG_LTGcore_GT_RTGcore_GT] (site TCGCGACCTCG) (LTG core: GT, RTG core: GT): criterion not met
- AGTCTTACTTGGGTTCTAACCTGTTGCCAGC [AGTCTTACTTG_LTGcore_CT_RTGcore_GC] (site AGTCTTACTTG) (LTG core: CT, RTG core: GC): criterion met
- AAACACACTTGGGTTCTAACCTGTTGCCTAG [AAACACACTAG_LTGcore_CT_RTGcore_CT] (site AAACACACTAG) (LTG core: CT, RTG core: CT): criterion met

Decide: is the reported value of recombinant barcode read abundance (log10) for CGCGCCCCTTGGGTTCTAACCTGTTGCGGCG [CGCGCCCCTCC_LTGcore_CT_RTGcore_CG] (site CGCGCCCCTCC) (LTG core: CT, RTG core: CG) equal to or greater than 0.1?
criterion not met

Decide: is the reported value of recombinant barcode read abundance (log10) for GCGGGACACTGGGTTCTAACCTGTTGCCTAG [GCGGGACCTAG_LTGcore_AC_RTGcore_CT] (site GCGGGACCTAG) (LTG core: AC, RTG core: CT) equal to or greater than 0.1?
criterion met

Decide: is the reported value of recombinant barcode read abundance (log10) for GGGAGCCACTGGGTTCTAACCTGTTGCTGAG [GGGAGCCCTCA_LTGcore_AC_RTGcore_CT] (site GGGAGCCCTCA) (LTG core: AC, RTG core: CT) equal to or greater than 0.1?
criterion not met

Decide: is the reported value of recombinant barcode read abundance (log10) for GCGCGACTCTGGGTTCTAACCTGTTGCTTGA [GCGCGACCTAA_LTGcore_TC_RTGcore_TC] (site GCGCGACCTAA) (LTG core: TC, RTG core: TC) equal to or greater than 0.1?
criterion met

Decide: is the reported value of recombinant barcode read abundance (log10) for GGGCGGAAGTGGGTTCTAACCTGTTGCGGAG [GGGCGGACTCC_LTGcore_AG_RTGcore_CT] (site GGGCGGACTCC) (LTG core: AG, RTG core: CT) equal to or greater than 0.1?
criterion not met
